Consider the following compounds and their measured IC50 readings.
- Tested on: PC-3
- method summary: Cytotoxicity against human PC3 cells after 96 hrs by SRB assay
- study conditions: PC-3, 96 h
Form entry: value (µM) — number only.

For COc1cc(C(=O)c2csc(-c3ccccc3)n2)cc(OC)c1OC on PC-3, measured IC50 was 0.021

Then there is this compound:
Value sought: IC50, system PC-3, item COc1cc(C(=O)c2csc(-c3ccccc3F)n2)cc(OC)c1OC . Result: 0.082

----------
- Tested on: PPC-1
- method summary: Cytotoxicity against human PPC1 cells after 96 hrs by SRB assay
- study conditions: ppc-1
measured attribute: pIC50
Note: pIC50 values are expressed as the negative base-10 logarithm of concentration in M.

Notebook: COc1cc(C(=O)c2csc(-c3ccncc3)n2)cc(OC)c1OC , pIC50 read as 4.74

Source of measurements: ChEMBL document CHEMBL1152784
